In what follows, each item is paired with its Ki for UniProt:P21554.
Sequence (P21554 whole entry): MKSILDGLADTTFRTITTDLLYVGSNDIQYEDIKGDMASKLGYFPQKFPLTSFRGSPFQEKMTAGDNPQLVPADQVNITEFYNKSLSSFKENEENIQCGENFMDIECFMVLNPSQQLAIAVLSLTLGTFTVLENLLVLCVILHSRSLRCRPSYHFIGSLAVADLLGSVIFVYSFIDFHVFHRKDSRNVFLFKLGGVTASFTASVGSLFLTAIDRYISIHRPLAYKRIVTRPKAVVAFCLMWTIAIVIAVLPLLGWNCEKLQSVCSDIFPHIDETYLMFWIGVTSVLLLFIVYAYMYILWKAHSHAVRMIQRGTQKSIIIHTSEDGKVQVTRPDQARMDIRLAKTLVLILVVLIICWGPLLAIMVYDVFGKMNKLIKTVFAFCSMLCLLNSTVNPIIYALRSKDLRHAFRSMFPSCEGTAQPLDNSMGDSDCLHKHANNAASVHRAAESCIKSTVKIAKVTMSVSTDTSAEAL
Entry rule: numbers only, all in nM.

Some compounds with known Ki results, for comparison:
                           structure_smiles  measurement_target  metric  reported_measurement
0  CC(C)NC(=O)NC1(c2ccccc2)CCN(c2ncnc3c2nc(-c2ccccc2Cl)n3-c2ccc(Cl)cc2)CC1      UniProt:P21554      Ki                   337
1  NC1(c2ccccc2)CCN(c2ncnc3c2nc(-c2ccccc2Cl)n3-c2ccc(Cl)cc2)CC1      UniProt:P21554      Ki                    11
2  CC(C)NC(=O)NC1CCN(c2ncnc3c2nc(-c2ccccc2Cl)n3-c2ccc(Cl)cc2)CC1      UniProt:P21554      Ki                    14
3  CC(C)(C)OC(=O)NC1(c2ccccc2)CCN(c2ncnc3c2nc(-c2ccccc2Cl)n3-c2ccc(Cl)cc2)CC1      UniProt:P21554      Ki                   7.1
4  CCCCNC(=O)NC1(c2ccccc2)CCN(c2ncnc3c2nc(-c2ccccc2Cl)n3-c2ccc(Cl)cc2)CC1      UniProt:P21554      Ki                   269
5  CC(C)(C)NC(=O)NC1(c2ccccc2)CCN(c2ncnc3c2nc(-c2ccccc2Cl)n3-c2ccc(Cl)cc2)CC1      UniProt:P21554      Ki                  25.5
6  CCNC(=O)NC1(c2ccccc2)CCN(c2ncnc3c2nc(-c2ccccc2Cl)n3-c2ccc(Cl)cc2)CC1      UniProt:P21554      Ki                   195
7  CCCNC(=O)NC1(c2ccccc2)CCN(c2ncnc3c2nc(-c2ccccc2Cl)n3-c2ccc(Cl)cc2)CC1      UniProt:P21554      Ki                   220

Ask: If you can, please state the reported Ki value of NC(=O)C1(c2ccccc2)CCN(c2ncnc3c2nc(-c2ccccc2Cl)n3-c2ccc(Cl)cc2)CC1 .
Reply: 1.79

Ask: // next record CC(C)(C)OC(=O)N1CCC(Nc2ncnc3c2nc(-c2ccccc2Cl)n3-c2ccc(Cl)cc2)CC1
Reply: 24

* * *

In what follows, each item is paired with its pKi for Cannabinoid receptor 2 (Homo sapiens, UniProt P34972).
Units for pKi: none; it is -log10 of a concentration expressed in mol/L.

>>> print(df.to_string())
                           structure_smiles  reported_measurement
0  CC(C)(C)OC(=O)NC1(c2ccccc2)CCN(c2ncnc3c2nc(-c2ccccc2Cl)n3-c2ccc(Cl)cc2)CC1                  4.86
1  CCCNC(=O)NC1(c2ccccc2)CCN(c2ncnc3c2nc(-c2ccccc2Cl)n3-c2ccc(Cl)cc2)CC1                  5.11

Ask: If you can, please state the reported pKi value of NC1(c2ccccc2)CCN(c2ncnc3c2nc(-c2ccccc2Cl)n3-c2ccc(Cl)cc2)CC1 .
Reply: 5.78

* * *

assay: Plasma concentration in Sprague-Dawley rat at 10 mg/kg, po after 30 mins; format: ADME, organism-based; set-up: dose 10 mg/kg, route oral
METRIC: concentration at 0.5 h (ng/mL)
Entry rule: numbers only, all in ng/mL.

Ask: If you can, please state the reported concentration at 0.5 h value of CS(=O)(=O)NC1(c2ccccc2)CCN(c2ncnc3c2nc(-c2ccccc2Cl)n3-c2ccc(Cl)cc2)CC1 .
Reply: 752
